Please respond with reported IC50 (mean ± SD) α-Glucosidase for every item in the list.
Target: yeast α-glucosidase
Experiment Description: yeast α-glucosidase inhibition assay (pNPG substrate)
Assay type: biochemical
Condition Info: yeast enzyme, 37 °C

Req: Hi! What's the reported IC50 (mean ± SD) α-Glucosidase for COc1ccc(-c2nc3cc(C(=O)/C=C/c4ccccc4Cl)ccc3n2C)cc1OC on yeast α-glucosidase?
Resp: 30.23 ± 0.14 µg·h/mL

Req: Also, COc1cc(/C=C/C(=O)c2ccc3c(c2)nc(-c2cc(OC)c(OC)c(OC)c2)n3C)cc(OC)c1OC please.
Resp: 22.45 ± 0.36 a µg/mL

Req: Also, COc1cc(-c2nc3cc(C(=O)/C=C/c4ccc(C)cc4)ccc3n2C)cc(OC)c1OC please.
Resp: 36.22 ± 0.58 l µg/mL

Req: Also, COc1ccc(/C=C/C(=O)c2ccc3c(c2)nc(-c2ccc(OC)c(OC)c2)n3C)cc1 please.
Resp: 631.7 ± 12.5 µg·h/mL

Req: Also, COc1ccc(-c2nc3cc(C(=O)/C=C/c4cc(OC)c(OC)c(OC)c4)ccc3n2C)cc1OC please.
Resp: 28.75 ± 0.12 f µg/mL

Req: Also, COc1ccccc1/C=C/C(=O)c1ccc2c(c1)nc(-c1ccc(OC)c(OC)c1)n2C please.
Resp: 25.21 ± 0.13 c µg/mL

Req: Also, COc1ccc(/C=C/C(=O)c2ccc3c(c2)nc(-c2cc(OC)c(OC)c(OC)c2)n3C)cc1 please.
Resp: 27.21 ± 0.36 e µg/mL

Req: Also, COc1ccc(-c2nc3cc(C(=O)/C=C/c4ccc(C)cc4)ccc3n2C)cc1OC please.
Resp: 32.10 ± 0.96 i µg/mL

Req: Also, COc1ccc(/C=C/C(=O)c2ccc3c(c2)nc(-c2cc(OC)c(OC)c(OC)c2)n3C)cc1OC please.
Resp: 29.30 ± 0.21 g µg/mL

Req: Also, COc1ccc(/C=C/C(=O)c2ccc3c(c2)nc(-c2ccc(OC)c(OC)c2)n3C)cc1OC please.
Resp: 23.88 ± 0.55 b µg/mL

Req: Also, COc1cc(-c2nc3cc(C(=O)/C=C/c4ccccc4Cl)ccc3n2C)cc(OC)c1OC please.
Resp: 29.28 ± 0.35 g µg/mL

Req: Also, COc1ccccc1/C=C/C(=O)c1ccc2c(c1)nc(-c1cc(OC)c(OC)c(OC)c1)n2C please.
Resp: 33.20 ± 0.60 J·µg/mL

Numbers sourced from paper PMC11643225.
